# Tested on: DU-145 prostate
# TEST_METHOD_NOTES: NCI tumour cell line growth inhibition, 48 h
READOUT_NAME: GI50

MOLECULE | RESULT
O=[N+]([O-])c1ccc(NC(c2ccccc2)c2ccc3cccnc3c2O)cc1 (configuration not stated) | 483 nM
O=C(Nc1n[nH]c2cc(-c3ccc(F)cc3)ccc12)C1CC1 | 10200 nM
Cn1cc(-c2nc(-c3c[nH]c4ccccc34)cs2)c2cccnc21 | 564 nM
Fc1ccc(Nc2ccnc(N3CCN(c4ccnc5cc(Cl)ccc45)CC3)n2)cc1 | 3960 nM
COc1cc(/C=C/[N+](=O)[O-])cc(OC)c1 | 1970 nM
O=C(Nc1cccc(Cl)c1)Nc1cc(C(F)(F)F)ccc1Cl | 2950 nM
COc1cc2cc(C(=O)Nc3ccccc3)c(N)nc2cc1OC | 80300 nM

Source listed as PubChem BioAssay (NCI).
